Each item that follows carries a reported GI50.
- System: SF-295
- assay_name: NCI tumour cell line growth inhibition, 48 h
Active and inactive are the calls of the source. No stated cut-off is given here; in the data, active = GI50 up to about 1.1 µM and inactive = higher.
measured_endpoint: GI50

>>> print(df.to_string())
                         structure_notation  target_or_system                result
0  Cc1nc(Nc2ccccc2)sc1C(=O)CC(=O)C(=O)NC12CC3CC(CC(C3)C1)C2            SF-295    71.3 µM (inactive)
1  N=C(N)NS(=O)(=O)c1ccc(NCc2cccc3c(=O)c4ccc(Cl)cc4oc23)cc1            SF-295  > 9.35 µM (inactive)
2  COP(=O)(/C=C/c1cc(C(=O)OCc2ccccc2)n(S(=O)(=O)c2ccccc2)c1)OC            SF-295   > 100 µM (inactive)
3           N#Cc1ccc(Nc2cnc3cc(N)ccc3n2)cc1            SF-295   > 100 µM (inactive)
4  Cn1c(=O)c2[nH]c(/N=N\n3ccc4ccccc43)nc2n(C)c1=O            SF-295   > 100 µM (inactive)

----------
- System: MDA-N
- assay_name: NCI tumour cell line growth inhibition, 48 h
Calls of active or inactive are those of the source. Cut-off read from the data, not from the text of the source: active = GI50 up to about 1.1 µM and inactive = higher. Starred links: 1 amine or outer side, 2 acyl side, 3 side chain; linkers in the order of their positions; H or OH if unused. Residues, ends and D or L forms follow the SMILES beside them. *: point of attachment. γGlu = O=C(O)[CH](CCC(=O)[*:2])N[*:1]; NHOH = ON*
// GI50 lookup, one value per entry
measured_endpoint: GI50

molecule	target_or_system	result
O=C1N/C(=N/N=C/C(O)C(O)C(O)C(O)CO)N/C1=C\c1c[nH]c2ccccc12 (stereo unspecified)	MDA-N	> 100 µM (inactive)
CCN(/C=C1/C(=O)C(c2ccccc2)N(c2ccccc2)C1=O)CC (stereo unspecified)	MDA-N	> 10 µM (inactive)
COC(=O)/C=C/COCC1C2CCC(=O)C21 (stereo unspecified)	MDA-N	> 100 µM (inactive)
CCOC(=O)c1csc(NC(=O)CCN2CCCC2)n1	MDA-N	> 100 µM (inactive)
CCOC(=O)CNC(=O)C(CCC(=O)NO)NC(=O)CCC(N)C(=O)O (stereo unspecified) (γGlu-Glu(NHOH)-Gly-OEt; configuration not given here)	MDA-N	> 100 µM (inactive)
O=C(O)CNC(=O)C(CSC(=O)OCC1c2ccccc2-c2ccccc21)NC(=O)CCC(NC(=O)OCC1c2ccccc2-c2ccccc21)C(=O)O (stereo unspecified)	MDA-N	28.1 µM (inactive)
CCOC(=O)/C=C/C(=O)O/C=C/[N+](=O)[O-]	MDA-N	> 100 µM (inactive)
CNc1nc(N(C)C)nc(N(C)C)n1	MDA-N	855 µM (inactive)
c1cnc2c(c1)Nc1cnncc1S2	MDA-N	> 100 µM (inactive)
Cc1ccc(C(=O)O)c(/C=C2\Cc3ccc(C)cc3C2=O)c1	MDA-N	37.8 µM (inactive)
CC(=O)c1ccc(NCc2cc(O)ccc2O)cc1	MDA-N	20.4 µM (inactive)

----------
- System: SNB-78
- assay_name: NCI tumour cell line growth inhibition, 48 h
Counter-ions that a name gives are not always drawn. The source made the active and inactive calls. Rule as the data show it: active = GI50 up to about 1.1 µM and inactive = higher.
Classes used: active, inactive

molecule	assigned_category
NCCNc1cccc2ccccc12	inactive
CCN(CC)CCNc1ccc(CO)c2sc3ccccc3c(=O)c12	inactive
Cc1cc(Cl)ccc1NC(=O)CC1SC(NC(=O)c2ccccc2Cl)=NC1=O (stereo not drawn)	inactive
CC(C)(C)S(=O)OC12CC3CC(CC(C3)C1)C2 (stereo not drawn)	inactive
O=C(N/C(=C\c1ccc(/C=C(\NC(=O)c2ccccc2)c2nc3cc([N+](=O)[O-])ccc3[nH]2)cc1)c1nc2cc([N+](=O)[O-])ccc2[nH]1)c1ccccc1	inactive
COC(=O)c1cc(Cl)ccc1NC(=O)c1ccc([N+](=O)[O-])cc1	inactive
N=C(N)Nc1nc2cc(N)ccc2o1	inactive
CNC(=O)NCCCCC(NC(=O)OCc1ccccc1)C(=O)OCc1ccccc1 (stereo not drawn)	inactive
C/C(CC(=O)Nc1ccc(C)c(C)c1)=N\NC(N)=O	inactive
Cc1cc2c(c(C(N)=O)c1C)-c1cc(Cl)cc(Cl)c1C2=O	inactive
COc1cc(C2c3cc4c(cc3[C@@H](Nc3cccc(O)c3)C3COC(=O)[C@H]23)OCO4)cc(OC)c1O (stereo partly drawn)	inactive
C/C(=N/NC(N)=S)c1ccc2ccccc2c1	inactive
Cc1ccc(/C=C/C(=O)c2sc(-c3cccnc3)nc2C)cc1	inactive
Cn1cc2ccccc2c1-c1nc(N)nc(F)n1	inactive
Cc1nc(Nc2ccccc2)sc1C(=O)CC(=O)C(=O)NC12CC3CC(CC(C3)C1)C2	inactive
CCc1ccccc1NC(=O)C(=O)C(C#N)c1ccccc1Cl (stereo not drawn)	inactive
CCc1cccc(C(C)C)c1N1C(=O)C(=O)C(c2nc3ccccc3s2)C(=O)C1=O	inactive
Cc1c(C(=O)/C=C/c2ccccc2[N+](=O)[O-])[n+]([O-])c2ccccc2[n+]1[O-]	inactive
O=C1c2cc(CCl)sc2C(=O)c2ccsc21	active
CN(C)CCCN1c2ccccc2Sc2ccc(C(F)(F)F)cc21 [TRIFLUPROMAZINE HYDROCHLORIDE]	inactive
CCOc1ccc(NC(=O)C(=O)C(C(=O)c2ccc3ccccc3c2)C2OC(=O)c3ccccc32)cc1 (stereo not drawn)	inactive
COC1C(O)CC(OC2CC(OC3CC(O[C@@H]4C(=O)c5c(cc6cc(OC7CC(OC8CC(O)C(O)C(C)O8)C(O)C(C)O7)c(C)c(O)c6c5O)C[C@H]4[C@H](OC)C(=O)[C@@H](O)[C@@H](C)O)OC(C)C3O)OC(C)C2O)OC1C (stereo partly drawn)	active
COc1cccc(NC(=O)/C(CC(=O)CC(c2ccccc2)c2c(O)c3ccccc3oc2=O)=N\NC(C)(C)C)c1OC (stereo not drawn)	inactive

----------
- Tested on: SF-295
- assay_name: NCI tumour cell line growth inhibition, 48 h
Active and inactive are the calls of the source. No stated cut-off is given here; in the data, active = GI50 up to about 1.1 µM and inactive = higher.
Measured GI50 of individual entries
measured_endpoint: GI50

>>> df
                                   compound  measured_endpoint               result
0  CC(=O)c1cccc(NC(=O)C(=O)c2c(O)oc3ccccc3c2=O)c1               GI50  > 100 µM (inactive)
1  COc1ccc(-c2cc(-c3ccco3)c(C#N)c(=S)n2C2OC(COC(C)=O)C(OC(C)=O)C(OC(C)=O)C2OC(C)=O)cc1 (centres undefined)               GI50   1.96 µM (inactive)
2  CCC(CCC(C)C1CCC2C3CC=C4CC(OC5OC(CO)C(O)C(O)C5O)CCC4(C)C3CCC12C)C(C)C (centres undefined)               GI50   98.9 µM (inactive)
3  Cc1cc(C)nc(NS(=O)(=O)c2ccc(NN=c3c4ccccc4n(C)c4ccccc34)cc2)n1               GI50   44.7 µM (inactive)

----------
- Test system: CCRF-CEM
- assay_name: NCI tumour cell line growth inhibition, 48 h
The source made the active and inactive calls. Rule as the data show it: active = GI50 up to about 1.1 µM and inactive = higher.
Classes used: active, inactive

compound	assigned_category
O=C(Cc1nc2ccc([N+](=O)[O-])cc2nc1O)C(=O)Nc1ccccc1[N+](=O)[O-]	inactive
COc1cc([C@@H]2c3[nH]c4ccccc4c3C(Nc3ccc([N+](=O)[O-])cc3)[C@H]3COC(=O)N23)cc(OC)c1O (some centres undefined)	active
CCOC(=O)CC(=O)Nc1cccc2sc3ncccc3c(=O)c12	inactive
Cc1cc(C)nc(NS(=O)(=O)c2ccc(NN=c3c4ccccc4n(C)c4ccccc34)cc2)n1	inactive
Cc1ccc(S(=O)(=O)NC(=O)NCCC(=O)O)cc1	inactive
CN1N=CSC12C(=O)N(c1ccc(Cl)cc1)C(=O)N2c1ccc(Cl)cc1 (centres undefined)	inactive
O=C(O)CC(NC(=O)Nc1ccc([N+](=O)[O-])cc1)C(=O)Nc1ccc([N+](=O)[O-])cc1 (centres undefined)	inactive
CC1OC(OC2C(OC(=O)[C@]34CCC(C)(C)C[C@H]3C3=CC[C@@H]5[C@@]6(C)CC[C@H](OC7OC(CO)C(O)C(O)C7OC7OC(CO)C(O)C(O)C7O)C(C)(C)[C@@H]6CC[C@@]5(C)[C@]3(C)CC4)OCC(O)C2O)C(O)C(O)C1OC1OCC(O)C(O)C1O (some centres undefined)	inactive
CC(C)(C)S(=O)OC12CC3CC(CC(C3)C1)C2 (centres undefined)	inactive
Oc1ccc(/C=C/c2cc(O)cc3c2C(c2cc(O)cc(O)c2)C(c2ccc(O)c(O)c2)O3)cc1 (centres undefined)	inactive
CCOP(=O)(OCC)C(N)c1ccc(Cl)cc1 (centres undefined)	inactive
COc1cc(-c2c(C(C)=O)c(-c3ccccc3)n(C3OC(COC(C)=O)C(OC(C)=O)C(OC(C)=O)C3OC(C)=O)c(=S)c2C#N)ccc1O (centres undefined)	inactive
N/N=C(\C(=O)Nc1ccc(Cl)cc1Cl)C(c1cnc2ccccc2n1)[N+](=O)[O-] (centres undefined)	inactive
COC(=O)/C=C/C(=O)Nc1cc(Cl)c(Cl)cc1CC(=O)N(C)[C@H]1CCCC[C@@H]1N1CCCC1	inactive
O=C(/C=C/c1ccc(O)cc1)c1cc(Cl)ccc1O	inactive
CCc1n[nH]c(=O)n1/N=C/c1ccccc1O	inactive
O=C1C(O)=C(C(CCc2ccccc2)C2=C(O)C(=O)c3ccccc3C2=O)C(=O)c2ccccc21	inactive
CN1CCN(C)C1c1cccc(C2N(C)CCN2C)c1	inactive
N#Cc1[nH]c(=O)n(-c2ccccc2)c1N	inactive
